src = PubChem BioAssay AID1918991

test system: 186277-243-T-J2-PDC complex spheroid growth; assay: Anticancer human tumor 186277-243-T-J2-PDC patient-derived colon adenocarcinoma cell line growth inhibition [AhR]; conditions: curve of first compound; second compound 0.1 µM
value kind: IC50 (nM)

Take a look at these entries with their results.
{"compound": "CC[C@@]1(O)C(=O)OCc2c1cc1n(c2=O)Cc2cc3c(CN(C)C)c(O)ccc3nc2-1 + CC(CO)NC(=O)c1cc(-c2ccc(Cl)cc2)nn(-c2cnn(C)c2)c1=O", "IC50, nM": 14.1}
{"compound": "CC(C)CC(NC(=O)C(Cc1ccccc1)NC(=O)c1cnccn1)B(O)O (stereo unspecified) + Cc1cncc(-c2nc(NCCc3c[nH]c4ccccc34)c3ncn(C(C)C)c3n2)c1", "IC50, nM": 15.8}

[a] Nc1ccccc1NC(=O)c1ccc(CNC(=O)OCc2cccnc2)cc1 + Cc1cncc(-c2nc(NCCc3c[nH]c4ccccc34)c3ncn(C(C)C)c3n2)c1
[b] CCc1c2c(nc3ccc(O)cc13)-c1cc3c(c(=O)n1C2)COC(=O)[C@]3(O)CC + Cc1cncc(-c2nc(NCCc3c[nH]c4ccccc34)c3ncn(C(C)C)c3n2)c1
[c] O=C(C=Cc1cccc(S(=O)(=O)Nc2ccccc2)c1)NO + Cc1cncc(-c2nc(NCCc3c[nH]c4ccccc34)c3ncn(C(C)C)c3n2)c1
Q: # rank_down: sort by IC50, max first # the answer lists labels in the order requested
Ans: a, c, b
(a: 3140 nM, c: 955 nM, b: 23.2 nM)

====

tested on: 186277-243-T-J2-PDC complex spheroid growth; experiment: Anticancer human tumor 186277-243-T-J2-PDC cell line growth inhibition [AhR]; conditions: second compound 0.1 µM; first compound 10 µM; stronger effect = lower value;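 further: spheroids exposed to compounds for seven days before the viability read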;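 on viability, T/C: luminescent signal used as a stand-in for viable cell amount; 100% = DMSO vehicle control wells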
value kind: viability, T/C (%)
# number only, unit % dropped from output

{"molecule": "O=C(C=Cc1cccc(S(=O)(=O)Nc2ccccc2)c1)NO + CC(CO)NC(=O)c1cc(-c2ccc(Cl)cc2)nn(-c2cnn(C)c2)c1=O", "viability, T/C, %": 0.31}
{"molecule": "CC1(C)CCC(CN2CCN(c3ccc(C(=O)NS(=O)(=O)c4ccc(NCC5CCOCC5)c([N+](=O)[O-])c4)c(Oc4cnc5[nH]ccc5c4)c3)CC2)=C(c2ccc(Cl)cc2)C1 + CC(CO)NC(=O)c1cc(-c2ccc(Cl)cc2)nn(-c2cnn(C)c2)c1=O", "viability, T/C, %": 10.5}
{"molecule": "COc1cc(Nc2ncc3c(n2)-c2ccc(Cl)cc2C(c2c(F)cccc2OC)=NC3)ccc1C(=O)O + Cc1ccccc1N=Nc1ccc(NC(=O)c2ccnn2C)c(C)c1", "viability, T/C, %": 120}
{"molecule": "COc1ccc([C@@H](O)c2cc(-c3ncnc4cc(N5CCOCC5)ccc34)c(F)cc2Cl)nn1 + Cc1ccccc1N=Nc1ccc(NC(=O)c2ccnn2C)c(C)c1", "viability, T/C, %": 55.8}
{"molecule": "Nc1ccccc1NC(=O)c1ccc(CNC(=O)OCc2cccnc2)cc1 + Cc1ccccc1N=Nc1ccc(NC(=O)c2ccnn2C)c(C)c1", "viability, T/C, %": 16.5}

Q: Observed viability, T/C on 186277-243-T-J2-PDC complex spheroid growth for NS(=O)(=O)OCC1CC(n2ccc3c(NC4CCc5ccccc54)ncnc32)CC1O (configuration not stated) + Cc1ccccc1N=Nc1ccc(NC(=O)c2ccnn2C)c(C)c1 , please.
Ans: 7.4

Q: Observed viability, T/C on 186277-243-T-J2-PDC complex spheroid growth for CC1(C)CCC(CN2CCN(c3ccc(C(=O)NS(=O)(=O)c4ccc(NCC5CCOCC5)c([N+](=O)[O-])c4)c(Oc4cnc5[nH]ccc5c4)c3)CC2)=C(c2ccc(Cl)cc2)C1 + Cc1cncc(-c2nc(NCCc3c[nH]c4ccccc34)c3ncn(C(C)C)c3n2)c1 , please.
Ans: 94.8

Q: Observed viability, T/C on 186277-243-T-J2-PDC complex spheroid growth for CC(C)c1c(-c2ccccc2)nc2c(C#N)c[nH]n2c1=O + CC(CO)NC(=O)c1cc(-c2ccc(Cl)cc2)nn(-c2cnn(C)c2)c1=O , please.
Ans: 79.6

Q: Observed viability, T/C on 186277-243-T-J2-PDC complex spheroid growth for O=C(c1cc(Cc2n[nH]c(=O)c3ccccc23)ccc1F)N1CCN(C(=O)C2CC2)CC1 + Cc1cncc(-c2nc(NCCc3c[nH]c4ccccc34)c3ncn(C(C)C)c3n2)c1 , please.
Ans: 123

Q: Observed viability, T/C on 186277-243-T-J2-PDC complex spheroid growth for O=C(C=Cc1cccc(S(=O)(=O)Nc2ccccc2)c1)NO + Cc1cncc(-c2nc(NCCc3c[nH]c4ccccc34)c3ncn(C(C)C)c3n2)c1 , please.
Ans: 2.59

Q: Observed viability, T/C on 186277-243-T-J2-PDC complex spheroid growth for O=C(c1cc(Cc2n[nH]c(=O)c3ccccc23)ccc1F)N1CCN(C(=O)C2CC2)CC1 + CC(CO)NC(=O)c1cc(-c2ccc(Cl)cc2)nn(-c2cnn(C)c2)c1=O , please.
Ans: 36.1

Q: Observed viability, T/C on 186277-243-T-J2-PDC complex spheroid growth for Nc1ccn(C2OC(CO)C(O)C2(F)F)c(=O)n1 (configuration not stated) + Cc1ccccc1N=Nc1ccc(NC(=O)c2ccnn2C)c(C)c1 , please.
Ans: 17.1
